The reported measurements were obtained from ChEMBL document CHEMBL3886728.

molecular target: Sodium channel protein type 9 subunit alpha (Homo sapiens); test: In Vitro PX Assay: HEK 293 cells stably transfected with human Nav1.7 were recorded in whole cell voltage clamp mode with the PatchXpress automated electrophysiology system (Molecular Devices, LLC, Sunnyvale, Calif.). Compound effects were measured on a partially inactivated state of the sodium channel. Cells were clamped to a holding potential yielding 20 to 50% inactivation. To elicit sodium current, channels were activated by pulsing to −10 mV for 20 msec. This voltage protocol was repeated at a rate of 0.1 Hz throughout the experiment. A single concentration of test compound was applied to cells for a duration of 3 minutes.; assay type: cell-based
Assign labels as follows, please: 1.0 for IC50 below 4 µM; 0.0 for IC50 equal to or exceeding 4 µM.

# smiles-notation, class-name
records = [
    ("N#Cc1ccc(F)c(N2CCOc3cc(S(=O)(=O)Nc4nccs4)ccc32)c1", 1.0),
    ("Cc1c(Cl)cccc1N1CCOc2cc(S(=O)(=O)Nc3nccs3)ccc21", 1.0),
    ("O=S(=O)(Nc1nccs1)c1ccc2c(c1)OCCN2c1ncc(Cl)cc1Cl", 0.0),
    ("COc1cc(C#N)ccc1N1CCOc2cc(S(=O)(=O)Nc3ccncn3)ccc21", 1.0),
    ("O=C1CCCc2ccc(N3CCOc4cc(S(=O)(=O)Nc5nccs5)ccc43)cc21", 0.0),
    ("O=S(=O)(Nc1nccs1)c1ccc2c(c1)OCCN2c1cccc(Cl)c1Cl", 1.0),
    ("O=S(=O)(Nc1nccs1)c1ccc2c(c1)OCCN2c1cccc2scnc12", 0.0),
    ("CCOc1cccc(N2CCOc3cc(S(=O)(=O)Nc4nccs4)ccc32)c1", 1.0),
    ("COc1ccc(N2CCOc3cc(S(=O)(=O)Nc4nccs4)ccc32)c(C#N)c1", 0.0),
    ("CN1CC=C(c2cc(C(F)(F)F)ccc2N2CCOc3cc(S(=O)(=O)Nc4ccncn4)ccc32)CC1", 1.0),
]

----------
// IC50 lookup, one value per entry
target: Sodium channel protein type 9 subunit alpha (Homo sapiens, UniProt Q15858); assay: In Vitro Assay: HEK 293 cells stably transfected with either Nav 1.7 or with Nav 1.5 were recorded in population patch-clamp mode with the IonWorks® Quattro automated electrophysiology system in accordance with the manufacturer's specifications (Molecular Devices, LLC, Sunnyvale, Calif.). Sodium channel currents were measured in response to a train of depolarizations that induced successively greater inactivation. Cells were held at −110 mV for three seconds (Nav 1.7) or half a second (Nav 1.5) from a holding voltage of −15 mV, then put through a series of 26 pulses of 150 msec duration to −20 mV at a frequency of 5 Hz. Cells were then left unclamped for a period of 3 to 8 minutes while a single concentration of test compound was added. Cells were then reclamped and put through the same voltage protocol. Current at the end of the 26th pulse to −20 mV was subtracted from the peak current evoked by the 26th pulse to −20 mV to correct for leak current.; format: cell-based
Sequence (Q15858 whole entry): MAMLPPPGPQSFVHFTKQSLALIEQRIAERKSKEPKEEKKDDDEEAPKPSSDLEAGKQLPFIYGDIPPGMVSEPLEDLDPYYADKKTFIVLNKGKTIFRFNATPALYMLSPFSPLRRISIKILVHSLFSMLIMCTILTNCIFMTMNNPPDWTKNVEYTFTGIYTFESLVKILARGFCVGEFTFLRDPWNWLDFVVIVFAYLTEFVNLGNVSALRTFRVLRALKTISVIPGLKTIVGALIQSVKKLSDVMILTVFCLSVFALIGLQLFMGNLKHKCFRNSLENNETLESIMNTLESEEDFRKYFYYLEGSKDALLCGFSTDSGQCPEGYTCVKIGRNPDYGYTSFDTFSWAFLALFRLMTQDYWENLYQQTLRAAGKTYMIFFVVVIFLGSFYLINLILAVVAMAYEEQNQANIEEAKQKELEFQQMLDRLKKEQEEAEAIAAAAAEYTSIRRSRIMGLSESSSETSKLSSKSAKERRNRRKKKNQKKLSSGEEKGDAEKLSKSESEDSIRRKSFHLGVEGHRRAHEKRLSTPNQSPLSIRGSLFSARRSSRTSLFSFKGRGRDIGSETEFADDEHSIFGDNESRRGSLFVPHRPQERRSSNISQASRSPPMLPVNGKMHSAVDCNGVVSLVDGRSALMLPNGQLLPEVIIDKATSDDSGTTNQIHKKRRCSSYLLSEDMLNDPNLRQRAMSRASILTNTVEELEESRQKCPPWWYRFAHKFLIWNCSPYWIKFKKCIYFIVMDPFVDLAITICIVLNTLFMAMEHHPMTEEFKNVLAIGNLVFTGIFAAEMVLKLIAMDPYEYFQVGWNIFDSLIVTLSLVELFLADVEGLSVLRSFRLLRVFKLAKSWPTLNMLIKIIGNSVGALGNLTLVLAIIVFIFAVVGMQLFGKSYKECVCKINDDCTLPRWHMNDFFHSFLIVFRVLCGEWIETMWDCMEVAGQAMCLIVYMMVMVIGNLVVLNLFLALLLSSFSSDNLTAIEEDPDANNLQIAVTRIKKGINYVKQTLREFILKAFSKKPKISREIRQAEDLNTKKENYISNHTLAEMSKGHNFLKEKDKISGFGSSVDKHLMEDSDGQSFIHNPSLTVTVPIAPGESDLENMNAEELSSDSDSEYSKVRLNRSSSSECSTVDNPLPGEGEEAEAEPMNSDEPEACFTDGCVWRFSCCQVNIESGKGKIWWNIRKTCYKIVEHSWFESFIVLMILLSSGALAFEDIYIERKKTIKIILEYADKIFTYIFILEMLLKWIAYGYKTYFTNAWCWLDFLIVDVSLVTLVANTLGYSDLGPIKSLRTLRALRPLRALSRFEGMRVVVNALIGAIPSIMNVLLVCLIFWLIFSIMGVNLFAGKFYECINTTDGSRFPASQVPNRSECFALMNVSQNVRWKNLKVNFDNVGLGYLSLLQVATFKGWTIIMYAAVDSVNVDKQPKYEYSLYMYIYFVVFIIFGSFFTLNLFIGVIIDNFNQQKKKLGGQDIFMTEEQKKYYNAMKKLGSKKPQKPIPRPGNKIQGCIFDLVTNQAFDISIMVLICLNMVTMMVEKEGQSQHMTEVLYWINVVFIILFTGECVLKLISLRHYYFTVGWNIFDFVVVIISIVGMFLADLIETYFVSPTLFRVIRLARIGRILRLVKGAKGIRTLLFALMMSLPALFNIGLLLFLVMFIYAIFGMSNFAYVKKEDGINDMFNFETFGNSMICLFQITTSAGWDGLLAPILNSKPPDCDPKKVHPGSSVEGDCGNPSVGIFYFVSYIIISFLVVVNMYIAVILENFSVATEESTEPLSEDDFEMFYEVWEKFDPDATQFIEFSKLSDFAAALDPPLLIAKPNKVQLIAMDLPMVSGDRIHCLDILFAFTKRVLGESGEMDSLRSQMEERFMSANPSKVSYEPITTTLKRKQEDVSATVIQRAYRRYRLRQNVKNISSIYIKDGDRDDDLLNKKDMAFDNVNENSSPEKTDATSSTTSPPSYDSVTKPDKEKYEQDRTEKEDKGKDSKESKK
property: IC50 (nM)

# smiles-notation, experimental-result
records = [
    ("O=S(=O)(Nc1nccs1)c1ccc2c(c1)OCCN2c1ccc(F)cc1F", 191),
    ("Cc1c(Cl)cccc1N1CCOc2cc(S(=O)(=O)Nc3nccs3)ccc21", 601),
    ("Cc1ccc(N2CCOc3cc(S(=O)(=O)Nc4nccs4)ccc32)cc1F", 7370),
    ("N#Cc1ccc(F)c(N2CCOc3cc(S(=O)(=O)Nc4nccs4)ccc32)c1", 727),
]

----------
target: Sodium channel protein type 9 subunit alpha (Homo sapiens); assay: In Vitro PX Assay: HEK 293 cells stably transfected with human Nav1.7 were recorded in whole cell voltage clamp mode with the PatchXpress automated electrophysiology system (Molecular Devices, LLC, Sunnyvale, Calif.). Compound effects were measured on a partially inactivated state of the sodium channel. Cells were clamped to a holding potential yielding 20 to 50% inactivation. To elicit sodium current, channels were activated by pulsing to −10 mV for 20 msec. This voltage protocol was repeated at a rate of 0.1 Hz throughout the experiment. A single concentration of test compound was applied to cells for a duration of 3 minutes.; type: cell-based
// IC50 lookup, one value per entry

# smiles-notation, IC50 / µM
records = [
    ("O=S(=O)(Nc1nccs1)c1ccc2c(c1)OCCN2c1ccc(F)cc1F", 1.82),
    ("O=S(=O)(Nc1nccs1)c1ccc2c(c1)OCCN2c1cc(F)ccc1F", 1.11),
    ("O=S(=O)(Nc1nccs1)c1ccc2c(c1)OCCN2c1ccc(-n2ccnc2)cc1", 13.7),
    ("CC(C)(C)OC(=O)N1CC=C(c2cc(C(F)(F)F)ccc2N2CCOc3cc(S(=O)(=O)Nc4ncns4)ccc32)CC1", 0.306),
    ("Cc1ccc(N2CCOc3cc(S(=O)(=O)Nc4nccs4)ccc32)cc1Cl", 1.55),
    ("O=S(=O)(Nc1nccs1)c1ccc2c(c1)OCCN2c1ccccc1C(F)(F)F", 8.02),
    ("Cc1cc(N2CCOc3cc(S(=O)(=O)Nc4nccs4)ccc32)cc(C)c1N(C)C", 2.37),
    ("COc1cccc(N2CCOc3cc(S(=O)(=O)Nc4nccs4)ccc32)c1", 2.07),
]

----------
molecular target: Sodium channel protein type 9 subunit alpha (Homo sapiens, UniProt Q15858); test: In Vitro Assay: HEK 293 cells stably transfected with either Nav 1.7 or with Nav 1.5 were recorded in population patch-clamp mode with the IonWorks® Quattro automated electrophysiology system in accordance with the manufacturer's specifications (Molecular Devices, LLC, Sunnyvale, Calif.). Sodium channel currents were measured in response to a train of depolarizations that induced successively greater inactivation. Cells were held at −110 mV for three seconds (Nav 1.7) or half a second (Nav 1.5) from a holding voltage of −15 mV, then put through a series of 26 pulses of 150 msec duration to −20 mV at a frequency of 5 Hz. Cells were then left unclamped for a period of 3 to 8 minutes while a single concentration of test compound was added. Cells were then reclamped and put through the same voltage protocol. Current at the end of the 26th pulse to −20 mV was subtracted from the peak current evoked by the 26th pulse to −20 mV to correct for leak current.; format: cell-based
// log10(IC50) lookup, one value per entry
property: log10(IC50) (log10 of the value in nM)

# smiles-notation, log10(IC50)
rows = [
    ("O=S(=O)(Nc1nccs1)c1ccc2c(c1)OCCN2c1cc(F)ccc1F", 2.06),
    ("O=S(=O)(Nc1nccs1)c1ccc2c(c1)OCCN2c1cccc2scnc12", 3.58),
    ("O=S(=O)(Nc1nccs1)c1ccc2c(c1)OCCN2c1ncc(Cl)cc1Cl", 2.60),
    ("Cc1ccc(N2CCOc3cc(S(=O)(=O)Nc4nccs4)ccc32)cc1Cl", 2.87),
    ("O=S(=O)(Nc1nccs1)c1ccc2c(c1)OCCN2c1cccc(Cl)c1Cl", 2.44),
]

----------
// pIC50 lookup, one value per entry
target: Sodium channel protein type 9 subunit alpha (Homo sapiens); experiment: In Vitro Assay: HEK 293 cells stably transfected with either Nav 1.7 or with Nav 1.5 were recorded in population patch-clamp mode with the IonWorks® Quattro automated electrophysiology system in accordance with the manufacturer's specifications (Molecular Devices, LLC, Sunnyvale, Calif.). Sodium channel currents were measured in response to a train of depolarizations that induced successively greater inactivation. Cells were held at −110 mV for three seconds (Nav 1.7) or half a second (Nav 1.5) from a holding voltage of −15 mV, then put through a series of 26 pulses of 150 msec duration to −20 mV at a frequency of 5 Hz. Cells were then left unclamped for a period of 3 to 8 minutes while a single concentration of test compound was added. Cells were then reclamped and put through the same voltage protocol. Current at the end of the 26th pulse to −20 mV was subtracted from the peak current evoked by the 26th pulse to −20 mV to correct for leak current.; assay type: cell-based
pIC50: −log10 of the molar value.

# smiles-notation, target-system, pIC50
records = [
    ("O=S(=O)(Nc1nccs1)c1ccc2c(c1)OCCN2c1ccc(-n2ccnc2)cc1", "Sodium channel protein type 9 subunit alpha (Homo sapiens)", 5.57),
    ("O=C1CCCc2ccc(N3CCOc4cc(S(=O)(=O)Nc5nccs5)ccc43)cc21", "Sodium channel protein type 9 subunit alpha (Homo sapiens)", 5.96),
    ("COc1ccc(N2CCOc3cc(S(=O)(=O)Nc4nccs4)ccc32)c(C#N)c1", "Sodium channel protein type 9 subunit alpha (Homo sapiens)", 5.57),
    ("CN1CC=C(c2cc(C(F)(F)F)ccc2N2CCOc3cc(S(=O)(=O)Nc4ccncn4)ccc32)CC1", "Sodium channel protein type 9 subunit alpha (Homo sapiens)", 8.35),
    ("O=S(=O)(Nc1nccs1)c1ccc2c(c1)OCCN2c1ccccc1C(F)(F)F", "Sodium channel protein type 9 subunit alpha (Homo sapiens)", 5.78),
    ("COc1cccc(N2CCOc3cc(S(=O)(=O)Nc4nccs4)ccc32)c1", "Sodium channel protein type 9 subunit alpha (Homo sapiens)", 6.85),
    ("CC(C)(C)OC(=O)N1CC=C(c2cc(C(F)(F)F)ccc2N2CCOc3cc(S(=O)(=O)Nc4ncns4)ccc32)CC1", "Sodium channel protein type 9 subunit alpha (Homo sapiens)", 7.09),
    ("Cc1cc(N2CCOc3cc(S(=O)(=O)Nc4nccs4)ccc32)cc(C)c1N(C)C", "Sodium channel protein type 9 subunit alpha (Homo sapiens)", 6.09),
    ("CCOc1cccc(N2CCOc3cc(S(=O)(=O)Nc4nccs4)ccc32)c1", "Sodium channel protein type 9 subunit alpha (Homo sapiens)", 6.13),
]
